Recorded composite z-score values for a group of compounds are listed next.
Test system: XIP peptide (Xip251-270)
protocolDetails: small-molecule binders of XIP peptide, primary screen, biochemical, small-molecule microarray, fluorescence 635/667 nm, 0.5 µg/mL protein (AID 1183)
assayConditions: small-molecule microarray binding, fluorescence 635 nm; higher = more signal
Just the number, please.

Sample answers from the record:
compound	composite z-score
[N-]=[N+]=Nc1ccccc1C[C@]1(C(=O)O)N=C(c2ccc(OCCCO)cc2)O[C@H]1c1ccccc1N=[N+]=[N-]	0.532
O=C(NCCN1CCOCC1)[C@@H]1c2ccccc2C(=O)N(Cc2ccccc2)[C@H]1c1ccc(CO)cc1	-0.314
COC(=O)[C@@]1(Cc2ccccc2CN=[N+]=[N-])N=C(c2ccc(OCCCO)cc2)O[C@H]1c1ccccc1	0.766
O=C(O)[C@@H]1C[C@@H]2C(=O)N3CCC[C@H]3C(=O)N2[C@@H]1c1cccc(OCCO)c1	0.932
CC1(C)C(=O)C(c2ccccc2)=C2CN3C(=O)N(CCc4ccccc4)C(=O)C3(Cc3ccc(F)cc3)C=C21 (centres undefined)	0.328
COc1ccc(C#Cc2ccc3c(c2)[C@]2(C(=O)N3)[C@H](c3ccc(OCCO)cc3)N3[C@H](c4ccccc4)[C@H](c4ccccc4)OC(=O)[C@H]3[C@@H]2C(=O)N2CCc3cc(OC)c(OC)cc3C2)cc1	0.659
COc1ccc([Si](C)(C)[C@H]2[C@H](CCO)O[C@@]3(C(=O)N(Cc4ccccc4)c4ccc(N5CCOC5=O)cc43)[C@@H]2C)cc1	0.52
COc1ccc(C(O)C2C=CC3C(=O)N(c4ccccc4)C(=O)C3N2Nc2ccccc2)cc1 (centres undefined)	0.572
CN(C)C(=O)[C@@]1(Cc2ccccc2N=[N+]=[N-])N=C(c2ccc(OCCCO)cc2)O[C@H]1c1ccccc1	0.821
COC(=O)[C@@]1(Cc2ccccc2CN=[N+]=[N-])N=C(c2ccc(OCCCO)cc2)O[C@H]1c1ccccc1CN=[N+]=[N-]	0.723

Item "CCCCNC(=O)c1ccc(C#C[Si](C(C)C)(C(C)C)C(C)C)c(OC(C)=O)c1" has what recorded composite z-score?
0.413

Item C=CCC(OC(C)=O)[C@@H]1[C@@H](N(Cc2cccc3ccccc23)C(=O)Cc2ccc(F)cc2)c2cc(OCCCO)ccc2N1C(=O)c1ccc(-c2ccccc2)cc1 (some centres undefined) has what recorded composite z-score?
-1.14

Item "CCOC(=O)C1=CC[C@@H](c2ccccc2)N(S(=O)(=O)c2ccc(C)cc2)[C@H]1C=Cc1ccccc1" has what recorded composite z-score?
0.749

====

Recorded z-score values for a group of compounds are listed next.
protocolDetails: basal RPMI8226 mitochondrial membrane potential changes, profiling panel, cell-based, JC-1 fluorescence, 24 h, 100 nL compound (AID 1169)
assayConditions: RPMI8226 myeloma, JC-1 mitochondrial potential fluorescence, higher = more signal
Just the number, please.

Sample answers from the record:
compound	reportedValue
COc1ccc(C#Cc2ccc3c(c2)[C@]2(C(=O)N3)[C@H](C(=O)Nc3nc4ccccc4s3)[C@H]3C(=O)O[C@H](c4ccccc4)[C@H](c4ccccc4)N3[C@@H]2c2ccccc2OCCO)cc1	-1.03
CC(C)CNC(=O)[C@@]1(C)c2ccccc2C(=O)N(Cc2cc(C(F)(F)F)cc(C(F)(F)F)c2)[C@H]1c1ccc(CO)cc1	0.465

Item C=CCC(OC(C)=O)[C@@H]1[C@@H](N(Cc2ccc(-c3ccccc3)cc2)C(=O)c2ccc(C)cc2)c2cc(OCCCO)ccc2N1C(=O)Cc1ccc2ccccc2c1 (stereo partly drawn) has what recorded z-score?
-0.0998

Item "COC(=O)[C@@]1(Cc2ccc(F)cc2)[C@H]2c3cc(C(=O)N(C)C)n(Cc4ccc(O)c(OC)c4)c3C[C@H]2CN1C(=O)c1ccccc1" has what recorded z-score?
-0.379

Item "CN(C)C(=O)[C@@]1(Cc2ccccc2N=[N+]=[N-])N=C(c2ccc(OCCCO)cc2)O[C@H]1c1ccccc1" has what recorded z-score?
-1.25

====

Test system: Chordin-like protein 2 (CHRDL2)
protocolDetails: CHRDL2 small-molecule binders, primary screen, biochemical, small-molecule microarray, 635 nm fluorescence (AID 1126);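 also: printed compound slides probed with Chrdl2 protein at 4 µg/mL for 1 h at 4 C; score merges 667 nm emission intensity with signal to noise over three replicate slides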
assayConditions: small-molecule microarray binding, fluorescence 635 nm; higher = more signal
Label scheme for composite z-score: lower than -0.1 is Not met, -0.1 and above is Met.

Consider the worked cases shown below.
compound	targetDesc	groupLabel
CC(C)(C)OC(=O)CC[C@]1(C(=O)N2CCCCC2)COC(c2ccc(OCCCO)cc2)=N1	Chordin-like protein 2 (CHRDL2)	Not met
COCCCNC(=O)[C@@]1(c2ccc([N+](=O)[O-])cc2)CC(=O)N(CC23CC4CC(CC(C4)C2)C3)[C@@H]1c1ccc(CO)cc1I	Chordin-like protein 2 (CHRDL2)	Not met
C=C(COC)C(=O)CC[C@H](OC(C)=O)c1ccc(OCCO)cc1	Chordin-like protein 2 (CHRDL2)	Met
CN(C)C(=O)[C@@]1(Cc2ccccc2)COC(c2ccc(OCCCO)cc2)=N1	Chordin-like protein 2 (CHRDL2)	Met
O=c1cccc(-c2ccco2)o1	Chordin-like protein 2 (CHRDL2)	Met

Would you say "C=CCNC(=O)[C@H]1[C@@H]2C(=O)O[C@@H](c3ccccc3)[C@@H](c3ccccc3)N2[C@@H](c2ccc(O)cc2)[C@]12C(=O)N(C(=O)OCCOC)c1ccc(C#CCC(C(=O)OC)C(=O)OC)cc12" shows composite z-score at minimum -0.1?
Met

Would you say "CCOC(=O)C[C@H]1[C@H](OC(=O)c2ccc(-c3ccccc3)cc2)[C@@H](NC(=O)Cc2ccc(OC)cc2)c2cc(OCCCO)ccc2N1C(=O)Cc1ccc(OC)cc1" shows composite z-score at minimum -0.1?
Not met

Would you say C=CCC(OC(C)=O)[C@@H]1[C@@H](N(Cc2ccc(-c3cccc(C(F)(F)F)c3)o2)C(=O)c2ccc(C)cc2)c2cc(OCCCO)ccc2N1C(=O)Cc1ccc(OC)cc1 (some centres not stated) shows composite z-score at minimum -0.1?
Met

Would you say "COCCOC(=O)N1C(=O)[C@@]2(c3cc(C#Cc4ccc(OC)cc4)ccc31)[C@H](c1ccc(OCCO)cc1)N1[C@H](c3ccccc3)[C@H](c3ccccc3)OC(=O)[C@H]1[C@@H]2C(=O)Nc1nc2ccccc2s1" shows composite z-score at minimum -0.1?
Not met

Would you say "CCOC(=O)C1=C[C@@H](C(C)(C)C)N(S(=O)(=O)c2ccc(C)cc2)[C@H]1c1ccccc1" shows composite z-score at minimum -0.1?
Not met

Would you say "COCCCNC(=O)[C@@]1(Sc2ccc(C)cc2)CC(=O)N(C(C)C)[C@@H]1c1ccc(CO)cc1I" shows composite z-score at minimum -0.1?
Not met

Would you say "CN(C)CCCCCCNC(=O)[C@@H]1C[C@@H]2C(=O)N[C@@H](CCCCN)C(=O)N2[C@@H]1c1ccc(O)cc1" shows composite z-score at minimum -0.1?
Met

Would you say "[N-]=[N+]=NCc1ccccc1[C@@H]1OC(c2ccc(OCCCO)cc2)=N[C@]1(Cc1ccccc1)C(=O)NCCN1CCOCC1" shows composite z-score at minimum -0.1?
Met

Would you say "C#C[C@@H](CC)O[Si](C#CCCCC#N)(C(C)C)C(C)C" shows composite z-score at minimum -0.1?
Met

Would you say "Cc1cccc([C@H]2C[C@H]3C(I)=C[C@@H]2C(=O)[C@]32CO2)c1" shows composite z-score at minimum -0.1?
Met

Would you say "[N-]=[N+]=Nc1ccccc1C[C@]1(C(=O)O)N=C(c2ccc(OCCCO)cc2)O[C@H]1c1ccccc1" shows composite z-score at minimum -0.1?
Not met

Would you say "COCCCNC(=O)[C@@]1(Sc2ccc(C)cc2)CC(=O)N(Cc2ccccc2Cl)[C@@H]1c1ccc(CO)cc1I" shows composite z-score at minimum -0.1?
Not met

Would you say "[N-]=[N+]=NCc1ccccc1[C@H]1OC(c2ccc(OCCCO)cc2)=N[C@@]1(CCS(=O)(=O)c1ccccc1)C(=O)NCc1ccccc1" shows composite z-score at minimum -0.1?
Met

Would you say "COc1ccc(C#Cc2ccc3c(c2)[C@]2(C(=O)N3)[C@H](c3ccc(OCCO)cc3)N3[C@H](c4ccccc4)[C@H](c4ccccc4)OC(=O)[C@H]3[C@@H]2C(=O)N2CCc3cc(OC)c(OC)cc3C2)cc1" shows composite z-score at minimum -0.1?
Met

Would you say C=C(C)[C@@H]1CC=C(C(O)C2C=CC3C(=O)N(c4ccccc4)C(=O)C3N2Nc2ccc(C#N)cc2)CC1 (some centres not stated) shows composite z-score at minimum -0.1?
Met

Would you say "C=C[C@H](C)[C@H](OC(=O)Nc1ccc(OC)cc1)c1ccc(OCCO)cc1" shows composite z-score at minimum -0.1?
Not met

Would you say COc1cc(NN2C(C(O)c3ccc(I)cc3)C=CC3C(=O)N(c4ccccc4)C(=O)C32)cc(OC)c1OC (configuration not stated) shows composite z-score at minimum -0.1?
Not met

The reported numbers originate from PubChem BioAssay.
